- assay-comment: physchem
- experimental-setup: water
assay-metric: solubility

[[record]]
compound = "Cc1ccc2c(c1)nc(N)c1ncc(CCc3ccc(OCCOCCOCCC(F)(F)P(=O)(O)O)cc3C)cc12 [compound T]"
measured_value = "~4000 µg/mL"

